Cited source: ChEMBL document CHEMBL4373677

System: HCT-116
Experiment: Antiproliferative activity against human HCT116 cells cultured as 3D-spheroids assessed as reduction in cell viability after 4 days by [3H]-thymidine incorporation assay
Type: functional, cell-based
pIC50: −log10 of the molar value.
This section presents molecules with their documented pIC50 values.

# smilesInput, resultModifier, pIC50
data = [
    ("c1cc2oc3cccc4oc5cccc6oc(c1)c2[c+](c34)c65", "<", 6.00),
    ("CCCn1c2cccc3oc4cccc5c4[c+](c32)c2c1cccc2n5CCC", "=", 7.68),
    ("CCCn1c2cccc3oc4cccc5oc6cccc1c6[c+](c45)c32", "=", 7.42),
]

* * *

System: MDA-MB-231
Assay: Induction of DNA double strand breaks in human MDA-MB-231 cells assessed as gammaH2AX phosphorylation at 1 uM incubated for 16 hrs by flow cytometry (reference value: 6.1 +/-0.7%)
Format: functional
measurementKind: Activity (%)

# smilesInput, unitText, reportedResult
records = [
    ("c1cc2oc3cccc4oc5cccc6oc(c1)c2[c+](c34)c65", "%", 8.8),
    ("CCCn1c2cccc3oc4cccc5oc6cccc1c6[c+](c45)c32", "%", 12.9),
    ("CC[C@@]1(O)C(=O)OCc2c1cc1n(c2=O)Cc2cc3ccccc3nc2-1", "%", 73.6),
    ("CCCn1c2cccc3oc4cccc5c4[c+](c32)c2c1cccc2n5CCC", "%", 13.6),
]
